procedure summary: Solubility test in dissolution medium (pH 1.2)
Assay type: physicochemical
condition set: dissolution medium (pH 1.2) of Korea Pharmacopeia, simulated gastric fluid, thermodynamic from solid; dissolution medium pH 1.2, shaken at 25° C. for 24 hours, HPLC; Mean ± SD, n = 3
experimental endpoint: solubility at 24 h (µg/mL)
Give the number; µg/mL is assumed, so skip it.

q: Read the entry CCC(C)n1ncn(-c2ccc(N3CCN(c4ccc(OCC5COC(Cn6cncn6)(c6ccc(Cl)cc6Cl)O5)cc4)CC3)cc2)c1=O (racemic) and write its reported solubility at 24 h.
a: 1.5
